Listing: Proxy for plastic degradation of selected proteins
substrate: gfPET; experiment: Proxy for plastic degradation [Released monomer concentration (HPLC/LC-MS) (TPA+MHET+BHET)]; conditions: 65 °C
property name: Proxy for plastic degradation

1. unnamed (protein) MENPYERGPDPTESSIEAVRGPFAVAQTTVSRLQADGFGGGTIYYPTDTSQGTFGAVAISPGFTAGQESIAWLGPRIASQGFVVITIDTITRLDQPDSRGRQLQAALDHLRTNSVVRNRIDPNRMAVMGHSMGGGGALSAAANNTSLEAAIPLQGWHTRKNWSSVRTPTLVVGAQLDTIAPVSSHSEAFYNSLPSDLDKAYMELRGASHFVSNTPDTTTAKYSIAWLKRFVDNDLRYEQFLCPAPDDFAISEYRATCPF	0.25 mmol/h
2. unnamed (protein) MANPYERGPDPTVQSIEAVRGPFSVSETNVSRLVVTGFGGGTIYYPRDTSQGTFGAVAIAPGFTASEGSMAWYGPRIASQGFVVFTIDTLTRLDQPDSRGRQLLAALDYLTQRSSVRSRIDSSRLAVMGHSMGGGGSLEASESRPSLKASIPLTPWNLKKNWRNNRVPTLIVGAENDSIASVRTHAEPFYESIPSTTNKAYLELNNATHFAPNISNTTIAKYSISWLKRFVDNDTRYEQFLCPPPRPDRDIEEYRCTCPY	0.1 mmol/h
3. unnamed (protein) MDNPYERGPDPTTQSVEAARGPYAVSQITVGGQFGSYSGGTIYYPTSTTDGKFGAVAIAPGFLSFQSSVAWLGPRIASQGFVVMTIDTGTIFDQPAQRGDQLLDALDFLTQRSSVKDRIDPNRLAVAGWSMGGGGSLEAAADRPSLKAAIPMAGWNLNTNWSRLTTPVLVVGVQNDLIAPVAMHSEPFYNSIRSEKAYLELAGGSHFTVTSANTPQAKLMISWLKRFVDNDTRYEQFICPGPSRGFSVSEYRSTCPF	0 mmol/h

Where do the numbers come from? From the PETadex activity labels (doi:10.1002/cssc.202101062).
